Reference source for all entries: ChEMBL document CHEMBL4689842

For each of the compounds below, state its Population Normal (%).
- System: HEK-293T
- measurement_description: Multiplex assay against HEK293T
- Format: toxicity, cell-based
- protocol_conditions: human, 12 h, 10 µM, compound concentration 10 uM, replicate 2
# output: bare number, implied unit %

Please tell me: Population Normal (%) of Nc1ccc(C(=O)Nc2cccc(-c3nc(N4CCOCC4)c4oc5ncccc5c4n3)c2)cn1 , system HEK-293T?
91

Please tell me: Population Normal (%) of N#Cc1cnc(Nc2cc(NC[C@H]3CNCCO3)c(C(F)(F)F)cn2)cn1 , system HEK-293T?
96

Please tell me: Population Normal (%) of CC(=O)c1cc(-c2cc(C(=O)NC3CC3)ccc2C)c2ncccn12 , system HEK-293T?
95

Please tell me: Population Normal (%) of CC(C)Oc1ccc(C(=O)N[C@H](CNC(=O)CN(C)C)Cc2ccc(-c3cn4cccc([C@H](C)O)c4n3)cc2)cc1Cl [GSK-923295A] , system HEK-293T?
95

Please tell me: Population Normal (%) of CCCn1c(=O)c2[nH]c(C34CC5CC(CC3C5)C4)nc2n(CCC)c1=O , system HEK-293T?
90

Please tell me: Population Normal (%) of Cl.Cl.Nc1ncnc2c1c(-c1cccc(OCc3ccccc3)c1)cn2[C@H]1C[C@@H](CN2CCC2)C1 , system HEK-293T?
77

Please tell me: Population Normal (%) of CN(C)C/C=C/C(=O)Nc1cc2c(Nc3ccc(F)c(Cl)c3)ncnc2cc1O[C@H]1CCOC1.O=C(O)/C=C\C(=O)O.O=C(O)/C=C\C(=O)O [AFATINIB DIMALEATE] , system HEK-293T?
96

Please tell me: Population Normal (%) of COc1cc2c(Nc3ccc(NC(=O)c4ccccc4)cc3)ncnc2cc1OCCCN1CCOCC1 , system HEK-293T?
97

Please tell me: Population Normal (%) of COc1cc2c(NC3CCN(C(C)C)CC3)nc(N3CCC(F)(F)CC3)nc2cc1OCCCN1CCCC1 , system HEK-293T?
93

Please tell me: Population Normal (%) of O=C(O)c1ccc2cc(-c3ccc(O)c(C45CC6CC(CC(C6)C4)C5)c3)ccc2c1 , system HEK-293T?
94

Please tell me: Population Normal (%) of Cl.Cl.NC1(c2ccc(-c3nc4ccn5c(=O)[nH]nc5c4cc3-c3ccccc3)cc2)CCC1 , system HEK-293T?
34

Please tell me: Population Normal (%) of Cc1cn(-c2cc(NC(=O)c3ccc4c(c3)CN(c3cncnc3)C[C@@H]4C)cc(C(F)(F)F)c2)cn1 , system HEK-293T?
95

Please tell me: Population Normal (%) of CNC(=O)c1cc(Oc2ccc(NC(=O)Nc3cc(C(C)(C)C)nn3-c3ccc4ncccc4c3)c(F)c2)ccn1 , system HEK-293T?
93

Please tell me: Population Normal (%) of CC(C)(C)c1cnc(CSc2cnc(NC(=O)C3CCNCC3)s2)o1 , system HEK-293T?
90

Please tell me: Population Normal (%) of Cc1cc2c(cc1N1C(=O)c3cccc4c(CCCO)ccc(c34)C1=O)n(C)c(=O)n2C , system HEK-293T?
95

Please tell me: Population Normal (%) of CCc1cc2c(cc1CC)CC(NC[C@H](O)c1ccc(O)c3[nH]c(=O)ccc13)C2 , system HEK-293T?
87

Please tell me: Population Normal (%) of CN(C)CCOc1ccc(-c2nc(-c3ccncc3)c(-c3ccc4c(c3)CC/C4=N\O)[nH]2)cc1 , system HEK-293T?
98

Please tell me: Population Normal (%) of CCOc1cc(N2CCC(O)CC2)ccc1Nc1ncc2c(n1)N(C1CCCC1)CCC(=O)N2C , system HEK-293T?
98
